measurement notes: Compound cytotoxicity, XTT-based colorimetric assay
Assay type: cell-based
cond: human, uninfected MT2 cells, day 4, XTT
assay metric: CC50 at 4 day

// below: answered compounds
| compound | assay metric | result value |
| --- | --- | --- |
| COc1cccc(OC)c1-c1ccc2c(=O)n(-c3ccc(S(=O)(=O)N4CCOCC4)cc3)c([C@H](Cc3cc(F)cc(F)c3)NC(=O)Cn3nc(C(F)F)c4c3C(F)(F)[C@@H]3C[C@H]43)nc2c1 | CC50 at 4 day | > 1000 nM |
| CC(C)n1ccc(CC(=O)N[C@@H](Cc2cc(F)cc(F)c2)c2nc3cc(-c4ccccc4F)ccc3c(=O)n2-c2ccc(Cl)c3c(NS(=O)(=O)C4CC4)nn(CC(F)F)c23)n1 | CC50 at 4 day | > 500 nM |

# input for lookup
[ask] Return value of CC50 at 4 day for input COc1cc(C)nc(-c2ccc3c(=O)n(-c4ccc(Cl)c5c(NS(C)(=O)=O)nn(C)c45)c([C@H](Cc4cc(F)cc(F)c4)NC(=O)Cn4nc(C(F)F)c5c4C(F)(F)[C@@H]4C[C@H]54)nc3c2)n1 (atropisomer, axis not shown; (aR)) , no commentary.
[reply] > 500 nM
